Values compiled from patent US11884671B2.

- Measured On: Full length human DNAPK protein (Homo sapiens (Human))
- Test Details: DNAPK enzyme potency assay (DNA-PK enz), TR-FRET
- Assay type: biochemical
- Setup Conditions: arithmetic mean of two or more experiments; 18 μM ATP; read-out: DNA-PK enz pIC50 (converted)
- Method: The following assays were used to measure the effects of the compounds described herein: a) DNAPK enzyme potency assay; b) DNAPK cellular potency assay. During the description of the assays, generally: • i. […] The inhibitory activity of compounds against DNAPK was determined by TR-FRET measuring a fluorescent labelled peptide substrate converting to a phosphorylated product. […] Stopped assay plates were read using a BMG Pherastar. […]
Experimental Readout: IC50 (nM)
Answer in nM, number only, no unit symbol.

Observed IC50 on Full length human DNAPK protein (Homo sapiens (Human)) for Cc1cc2ncccc2cc1Nc1ncc2c(n1)n([C@H]1CC[C@](C)(N)CC1)c(=O)n2C , please.
0.316

Checklist item: IC50 tested on Full length human DNAPK protein (Homo sapiens (Human)), entry Cc1cc2nccnc2cc1Nc1ncc2c(n1)n([C@H]1CC[C@@H](O)CC1)c(=O)n2C , value?
0.2

Query for Full length human DNAPK protein (Homo sapiens (Human)): what IC50 does the record show for Cc1cnc2cc(Nc3ncc4c(n3)n(C3CCOCC3)c(=O)n4C)c(C)cc2n1 ?
0.501

Lab request: please report IC50 under test system Full length human DNAPK protein (Homo sapiens (Human)) for Cc1cc2ncccc2cc1Nc1ncc2c(n1)n([C@H]1CC[C@@H](O)CC1)c(=O)n2C
0.158

Observed IC50 on Full length human DNAPK protein (Homo sapiens (Human)) for Cc1cc2nccnc2cc1Nc1ncc2c(n1)n([C@H]1CC[C@](C)(O)CC1)c(=O)n2C , please.
0.251

Item Cc1cc2ncccc2cc1Nc1ncc2c(n1)n([C@H]1CC[C@@](C)(N)CC1)c(=O)n2C with Full length human DNAPK protein (Homo sapiens (Human)) - IC50?
1

What reported IC50 corresponds to Cc1cc2nccnc2cc1Nc1ncc2c(n1)n([C@H]1CC[C@@](C)(O)CC1)c(=O)n2C on Full length human DNAPK protein (Homo sapiens (Human))?
0.158

----------
So I've got a bunch of molecules here, and I need their TTK enz pIC50 values.
- Measured On: TTK (Homo sapiens (Human), UniProt P33981)
- Sequence (P33981 whole entry): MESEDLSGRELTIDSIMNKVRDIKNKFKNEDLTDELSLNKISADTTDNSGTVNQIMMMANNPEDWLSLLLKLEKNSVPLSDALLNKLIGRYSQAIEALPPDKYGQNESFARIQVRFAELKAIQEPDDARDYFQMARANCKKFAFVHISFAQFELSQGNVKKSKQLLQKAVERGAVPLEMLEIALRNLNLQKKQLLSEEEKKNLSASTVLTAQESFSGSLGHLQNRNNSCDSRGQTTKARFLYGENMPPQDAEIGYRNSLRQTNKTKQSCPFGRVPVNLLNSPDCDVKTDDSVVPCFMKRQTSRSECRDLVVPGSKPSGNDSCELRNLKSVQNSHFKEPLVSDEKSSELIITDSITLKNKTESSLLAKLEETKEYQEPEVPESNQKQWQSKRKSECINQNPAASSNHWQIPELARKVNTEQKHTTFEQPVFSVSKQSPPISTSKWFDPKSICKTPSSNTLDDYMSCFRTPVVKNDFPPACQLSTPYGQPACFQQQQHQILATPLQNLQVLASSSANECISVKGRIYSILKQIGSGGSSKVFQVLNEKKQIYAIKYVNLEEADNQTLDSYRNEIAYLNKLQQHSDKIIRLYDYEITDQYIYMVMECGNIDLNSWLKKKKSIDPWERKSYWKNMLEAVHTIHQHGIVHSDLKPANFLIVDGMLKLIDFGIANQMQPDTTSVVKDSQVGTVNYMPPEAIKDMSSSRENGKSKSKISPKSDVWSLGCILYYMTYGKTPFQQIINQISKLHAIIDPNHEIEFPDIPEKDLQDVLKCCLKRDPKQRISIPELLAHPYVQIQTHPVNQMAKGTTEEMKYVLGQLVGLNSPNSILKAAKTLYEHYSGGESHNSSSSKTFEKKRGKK
- Test Details: TTK enzyme assay (LanthaScreen Eu Kinase Binding)
- Setup Conditions: arithmetic mean of two or more experiments

Find TTK enz pIC50 (TTK (Homo sapiens (Human), UniProt P33981)) for the entry Cc1cc2ncccc2cc1Nc1ncc2c(n1)n(C1CCOCC1)c(=O)n2C
6.4

Form: Entry = Cc1cc2nccnc2cc1Nc1ncc2c(n1)n([C@H]1CCOC1)c(=O)n2C | System = TTK (Homo sapiens (Human), UniProt P33981) | TTK enz pIC50 = ____
5.5

TTK (Homo sapiens (Human), UniProt P33981) / TTK enz pIC50 / Cc1cc2nnccc2cc1Nc1ncc2c(n1)n([C@@H]1CCOC1)c(=O)n2C : value?
5.9

Could you share what TTK enz pIC50 was measured for CCN1CCC(n2c(=O)n(C)c3cnc(Nc4cc5cccnc5cc4C)nc32)CC1 , tested on TTK (Homo sapiens (Human), UniProt P33981)?
5.2

Field: TTK enz pIC50 (TTK (Homo sapiens (Human), UniProt P33981)). Entry: Cc1cc2nccnc2cc1Nc1ncc2c(n1)n([C@]1(C)CC[C@H](O)CC1)c(=O)n2C
6.4

Param readout = TTK enz pIC50; param system = TTK (Homo sapiens (Human), UniProt P33981); param query = Cc1cc2nnccc2cc1Nc1ncc2c(n1)n([C@H]1CCOC1)c(=O)n2C ; response: value
6.4

// fetch TTK (Homo sapiens (Human), UniProt P33981) TTK enz pIC50 for Cc1cc2ncccc2cc1Nc1ncc2c(n1)n(C1CCN(CCO)CC1)c(=O)n2C
5.9

Hello, I am looking for reported TTK enz pIC50 with TTK (Homo sapiens (Human), UniProt P33981) for CC(=O)N1CCC(n2c(=O)n(C)c3cnc(Nc4cc5ncc(C)nc5cc4C)nc32)CC1 . Could you help?
6.0

Checklist item: TTK enz pIC50 tested on TTK (Homo sapiens (Human), UniProt P33981), entry CC(=O)N1CCC(n2c(=O)n(C)c3cnc(Nc4cc5nccnc5cc4C)nc32)CC1 , value?
5.8

// fetch TTK (Homo sapiens (Human), UniProt P33981) TTK enz pIC50 for COCCN1CCC(n2c(=O)n(C)c3cnc(Nc4cc5cccnc5cc4C)nc32)CC1
5.7

# returns recorded TTK enz pIC50 (system: TTK (Homo sapiens (Human), UniProt P33981)) for CC(=O)N1CCC(n2c(=O)n(C)c3cnc(Nc4cc5nc(C)cnc5cc4C)nc32)CC1
5.3

Please tell me: TTK enz pIC50 of CC(=O)N1CCC(n2c(=O)n(C)c3cnc(Nc4cc5ccnnc5cc4C)nc32)CC1 , system TTK (Homo sapiens (Human), UniProt P33981)?
5.9

Give the reported TTK enz pIC50 for Cc1cc2nnccc2cc1Nc1ncc2c(n1)n([C@H]1CC[C@H](O)CC1)c(=O)n2C (system: TTK (Homo sapiens (Human), UniProt P33981)).
6.9

TTK enz pIC50 of COc1ccnc2cc(C)c(Nc3ncc4c(n3)n([C@H]3CC[C@H](O)CC3)c(=O)n4C)cc12 on TTK (Homo sapiens (Human), UniProt P33981)?
6.1

Missing value: TTK enz pIC50, TTK (Homo sapiens (Human), UniProt P33981), entry Cc1cc2nccnc2cc1Nc1ncc2c(n1)n([C@H]1CCCOC1)c(=O)n2C . Fill in?
6.1

// fetch TTK (Homo sapiens (Human), UniProt P33981) TTK enz pIC50 for Cc1cc2ncccc2cc1Nc1ncc2c(n1)n([C@@H]1CCN(C)C[C@@H]1F)c(=O)n2C
5.4

Kindly state the measured TTK enz pIC50 obtained for Cc1cc2ncccc2cc1Nc1ncc2c(n1)n([C@@H]1CCN(C)C1)c(=O)n2C with TTK (Homo sapiens (Human), UniProt P33981).
<5.1
